# Study system: CYP2D6 (Homo sapiens, UniProt P10635)
# Construct: tissue BD-Gentest 452117; host or cells: human liver microsomes
# Sequence (P10635 whole entry): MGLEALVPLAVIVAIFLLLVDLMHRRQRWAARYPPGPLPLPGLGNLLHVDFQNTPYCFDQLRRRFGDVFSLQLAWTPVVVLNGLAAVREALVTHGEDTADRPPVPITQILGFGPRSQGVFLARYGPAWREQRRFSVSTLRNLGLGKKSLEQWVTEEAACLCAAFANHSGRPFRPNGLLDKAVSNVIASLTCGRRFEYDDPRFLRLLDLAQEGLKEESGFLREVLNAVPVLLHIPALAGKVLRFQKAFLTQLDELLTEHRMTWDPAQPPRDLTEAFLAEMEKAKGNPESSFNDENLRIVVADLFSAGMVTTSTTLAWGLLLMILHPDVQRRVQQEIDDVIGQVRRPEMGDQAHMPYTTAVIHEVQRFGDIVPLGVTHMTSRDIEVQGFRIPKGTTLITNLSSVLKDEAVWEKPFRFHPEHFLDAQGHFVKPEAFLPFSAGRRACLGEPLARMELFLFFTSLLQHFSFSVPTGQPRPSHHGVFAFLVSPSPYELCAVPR
# Measurement description: CYP inhibition assay in human liver microsome
# Assay type: in vitro ADME
# Conditions: human liver microsomes, probe dextromethorphan, 10µM test compound, dextromethorphan substrate, <0: not or weak inhibitor, read-out: CYP 2D6 inhibition %@10µM
Quick reference: inhibition at 10 min, 10 µM of the listed items.
Quantity kind: inhibition at 10 min, 10 µM (%)

>>> result("C[C@@H]1CN(c2ccc(C#N)c3ncccc23)C[C@H](CN2CCC(Nc3ncc4c(n3)CNC4)C2)O1 (stereo partly drawn) [Example 32]")
17.5
>>> result("C[C@@H]1CN(c2ccc(C#N)c3ncccc23)C[C@H](CN2CC3(C2)CN(c2cnc4c(c2)CCNC4)CCO3)O1 [Example 46]")
12
>>> result("C[C@@H]1Cc2cc(N3CCN(C[C@H]4CN(c5ccc(C#N)c6nccnc56)C[C@@H](C)O4)CC3)ncc2CN1 (single isomer, unassigned) [Example 83]")
-8
>>> result("C[C@@H]1CN(c2ccc(C#N)c3ncccc23)C[C@H](CN2CCN(c3ccc4c(c3)CN(CCO)C4)CC2)O1 [Example 16]")
2.5
>>> result("C[C@@H]1CN(c2ccc(C#N)c3ncccc23)C[C@H](CN2CC3(C2)CN(c2ccc4c(n2)CCNC4)CCO3)O1 [Example 49]")
22
>>> result("C[C@@H]1CN(c2ccc(C#N)c3ncccc23)C[C@H](CN2CCN(c3ncc4c(n3)CNC4)CC2)O1 [Example 11]")
19
>>> result("C[C@@H]1CN(c2ccc(C#N)c3ncccc23)C[C@H](CN2CCN(c3cnc4c(c3)CNCC4)C(C)(C)C2)O1 [Example 56]")
-2.5
>>> result("C[C@@H]1CN(c2ccc(C#N)c3nccnc23)C[C@H](CN2CCN(c3cc4c(cn3)CCN[C@@H]4C)CC2)O1 (single isomer, unassigned) [Example 87]")
-2.5
>>> result("C[C@@H]1CN(c2ccc(C#N)c3ncccc23)C[C@H](CN2CCN(c3cc4c(cn3)[C@@H](C)NCC4)CC2)O1 (single isomer, unassigned) [Example 73]")
6
>>> result("C[C@@H]1CN(c2ccc(C#N)c3ncccc23)C[C@H](CN2C[C@@H]3[C@@H](C2)OCCN3c2cnc3c(c2)CCNC3)O1 [Example 52]")
5
>>> result("CC1NCc2ncc(N3CCN(C[C@H]4CN(c5ccc(C#N)c6ncccc56)C[C@@H](C)O4)CC3)cc21 (stereo partly drawn) [Example 41]")
-2
>>> result("C[C@@H]1CN(c2ccc(C#N)c3ncccc23)C[C@H](CN2CCN(c3cnc4c(n3)CNCC4)CC2)O1 [Example 40]")
8
>>> result("C[C@@H]1CN(c2ccc(C#N)c3ncccc23)C[C@H](CN2CCN(c3ccc4c(n3)CCNC4)CC2)O1 [Example 14]")
-6
>>> result("C[C@@H]1CN(c2ccc(C#N)c3nccnc23)C[C@H](CN2CCN(c3cnc4c(c3)CNC4)CC2)O1 [Example 25]")
-8
>>> result("C[C@@H]1CN(c2ccc(C#N)c3nccnc23)C[C@H](CN2CCN(c3ccc4c(n3)CN[C@H]4C)CC2)O1 (single isomer, unassigned) [Example 78]")
0.5
>>> result("C[C@@H]1CN(c2ccc(C#N)c3ncccc23)C[C@H](CN2CCN(c3ccncc3)CC2)O1 [ER-888286, reference compound]")
52.5
>>> result("C[C@@H]1CN(c2ccc(C#N)c3ncccc23)C[C@H](CN2CCN(c3ccc4c(n3)CNCC4)CC2)O1 [Example 69]")
8.5
>>> result("C[C@@H]1CN(c2ccc(C#N)c3ncccc23)C[C@H](CN2CCN(c3ncc4c(n3)CCNC4)CC2)O1 [Example 29]")
16.5
>>> result("C[C@@H]1CN(c2ccc(C#N)c3ncccc23)C[C@H](CN2CC3(C2)CN(c2cnc4c(c2)CNCC4)CCO3)O1 [Example 47]")
-21.5
>>> result("C[C@@H]1CN(c2ccc(C#N)c3ncccc23)C[C@H](CN2CCCN(c3ncc4c(n3)CCNC4)CC2)O1 [Example 39]")
8.5
>>> result("C[C@@H]1CN(c2ccc(C#N)c3nccnc23)C[C@H](CN2CCN(c3cc4c(cn3)CCNC4)CC2)O1 [Example 80]")
7
>>> result("C[C@@H]1CN(c2ccc(C#N)c3ncccc23)C[C@H](CN2CC3(C2)CN(c2cnc4c(n2)CCNC4)CCO3)O1 [Example 50]")
10.5
>>> result("C[C@@H]1CN(c2ccc(C#N)c3ncccc23)C[C@H](CN2CCN(c3ccc4c(c3)CNCC4)CC2)O1 [Example 9]")
-2.5
>>> result("C[C@@H]1CN(c2ccc(C#N)c3ncccc23)C[C@H](CN2CCN(c3cc4c(cn3)CCNC4)CC2)O1 [Example 20]")
-5.5
>>> result("Cc1cnc2c(C#N)ccc(N3C[C@H](CN4CCN(c5cc6c(cn5)CCNC6)CC4)O[C@H](C)C3)c2n1 [Example 90]")
5
>>> result("C[C@@H]1CN(c2ccc(C#N)c3ncccc23)C[C@H](CN2CC3(C2)CN(c2ccc4c(n2)CNCC4)CCO3)O1 [Example 45]")
9
>>> result("C[C@@H]1CN(c2ccc(C#N)c3ncccc23)C[C@H](CN2CCN(c3ccc4c(n3)CCN(C)C4)CC2)O1 [Example 34]")
4
